This collection of values is drawn from patent US20260226086A1.

# pIC50 listing for each entry below
System: SU-DHL-1 cells
Test: CellTiter-Glo 2.0 cell viability assay, SU-DHL-1
Type: cell-based
Conditions: Homo sapiens, 96 h, 4 days
pIC50: −log10 of the molar value.

Example compounds with recorded pIC50:
CCS(=O)(=O)c1ccc(CNC(=O)[C@H](CCC(N)=O)NC(=O)[C@@H]2CC[C@@H]3CCN(C(=O)CCCCc4cn([C@H](C(=O)N5C[C@H](O)C[C@H]5C(=O)N[C@@H](CCN5CCOCC5)c5ccc(-c6scnc6C)cc5)C(C)(C)C)nn4)C[C@H](NC(=O)c4cc5cc(C(=O)P(=O)(O)O)ccc5[nH]4)C(=O)N32)cc1 : 6.00 to 7.00
CC(=O)N1CC[C@H]2CC[C@@H](C(=O)N[C@@H](CCC(N)=O)COc3cccc(CCCc4cn([C@H](C(=O)N5C[C@H](O)C[C@H]5C(=O)N[C@@H](CCN5CCOCC5)c5ccc(-c6scnc6C)cc5)C(C)(C)C)nn4)c3Cl)N2C(=O)[C@@H](NC(=O)c2cc3cc(C(=O)P(=O)(O)O)ccc3[nH]2)C1 : 7.00 to 8.00

Turning now to a further compound:
Note down pIC50 recorded for CC(=O)N1CC[C@H]2CC[C@@H](C(=O)N[C@@H](CCC(N)=O)COc3cccc(CCCc4cn([C@H](C(=O)N5C[C@H](O)C[C@H]5C(=O)N[C@@H](C)c5ccc(-c6scnc6C)cc5)C5CCN(C6CCOCC6)CC5)nn4)c3Cl)N2C(=O)[C@@H](NC(=O)c2cc3cc(C(=O)P(=O)(O)O)ccc3[nH]2)C1 7.00 to 8.00

---

# pIC50 listing for each entry below
System: SUP-M2 cells
Test: CellTiter-Glo 2.0 cell viability assay, SUP-M2
Assay type: cell-based
Conditions: SUP-M2, 96 h, 4 days
pIC50: −log10 of the molar value.

Example compounds with recorded pIC50:
CC(=O)N1CC[C@H]2CC[C@@H](C(=O)N[C@@H](CCC(N)=O)COc3cccc(CCCc4cn([C@H](C(=O)N5C[C@H](O)C[C@H]5C(=O)N[C@@H](C)c5ccc(-c6scnc6C)cc5)C5CCOCC5)nn4)c3Cl)N2C(=O)[C@@H](NC(=O)c2cc3cc(C(=O)P(=O)(O)O)ccc3[nH]2)C1 : > 8.00
CC(=O)N1CC[C@H]2CC[C@@H](C(=O)N[C@@H](CCC(N)=O)COc3cccc(CCCCN4CCC([C@@H](C(=O)N5C[C@H](O)C[C@H]5C(=O)N[C@@H](C)c5ccc(-c6scnc6C)cc5)n5cc(C6CC6)nn5)CC4)c3Cl)N2C(=O)[C@@H](NC(=O)c2cc3cc(C(=O)P(=O)(O)O)ccc3[nH]2)C1 : 7.00 to 8.00
CC(=O)N1CC[C@H]2CC[C@@H](C(=O)N[C@@H](CCC(N)=O)COc3cccc(CCCc4cn([C@H](C(=O)N5C[C@H](O)C[C@H]5C(=O)N[C@@H](CCN5CCOCC5)c5ccc(-c6scnc6C)cc5)C(C)(C)C)nn4)c3Cl)N2C(=O)[C@@H](NC(=O)c2cc3cc(C(=O)P(=O)(O)O)ccc3[nH]2)C1 : 7.00 to 8.00
Cc1ncsc1-c1ccc([C@H](C)NC(=O)[C@@H]2C[C@@H](O)CN2C(=O)[C@@H](n2cc(CCC(=O)N3CC[C@H]4CC[C@@H](C(=O)N[C@@H](CCC(N)=O)C(=O)NC(c5ccccc5)c5ccccc5)N4C(=O)[C@@H](NC(=O)c4cc5cc(C(=O)P(=O)(O)O)ccc5[nH]4)C3)nn2)C(C)(C)C)cc1 : < 6.00
CCS(=O)(=O)c1ccc(CNC(=O)[C@H](CCC(N)=O)NC(=O)[C@@H]2CC[C@@H]3CCN(C(=O)CCCCCc4cn([C@H](C(=O)N5C[C@H](O)C[C@H]5C(=O)N[C@@H](COCCOCCOCCOC)c5ccc(-c6scnc6C)cc5)C(C)(C)C)nn4)C[C@H](NC(=O)c4cc5cc(C(=O)P(=O)(O)O)ccc5[nH]4)C(=O)N32)cc1 : 7.00 to 8.00
COCCOCCOCCOC[C@H](NC(=O)[C@@H]1C[C@@H](O)CN1C(=O)[C@@H](n1cc(CCCc2cccc(OC[C@H](CCC(N)=O)NC(=O)[C@@H]3CC[C@@H]4CCN(C(C)=O)C[C@H](NC(=O)c5cc6cc(C(=O)P(=O)(O)O)ccc6[nH]5)C(=O)N43)c2Cl)nn1)C(C)(C)C)c1ccc(-c2scnc2C)cc1 : 7.00 to 8.00

Note down pIC50 recorded for CC(=O)N1CC[C@H]2CC[C@@H](C(=O)N[C@@H](CCC(N)=O)COc3cccc(CCCc4cn(C[C@H](NC(=O)[C@@H]5C[C@@H](O)CN5C(=O)[C@@H](n5cc(C6CC6)nn5)C(C)(C)C)c5ccc(-c6scnc6C)cc5)nn4)c3Cl)N2C(=O)[C@@H](NC(=O)c2cc3cc(C(=O)P(=O)(O)O)ccc3[nH]2)C1 7.00 to 8.00

Note down pIC50 recorded for Cc1ncsc1-c1ccc([C@H](C)NC(=O)[C@@H]2C[C@@H](O)CN2C(=O)[C@@H](n2cc(CCCCCCC(=O)N3CC[C@H]4CC[C@@H](C(=O)N[C@@H](CCC(N)=O)C(=O)NC(c5ccccc5)c5ccccc5)N4C(=O)[C@@H](NC(=O)c4cc5cc(C(=O)P(=O)(O)O)ccc5[nH]4)C3)nn2)C(C)(C)C)cc1 < 6.00

Note down pIC50 recorded for Cc1ncsc1-c1ccc([C@H](C)NC(=O)[C@@H]2C[C@@H](O)CN2C(=O)[C@@H](NC(=O)CCCCCCCCC(=O)N2CC[C@H]3CC[C@@H](C(=O)N[C@@H](CCC(N)=O)C(=O)NC(c4ccccc4)c4ccccc4)N3C(=O)[C@@H](NC(=O)c3cc4cc(C(=O)P(=O)(O)O)ccc4[nH]3)C2)C(C)(C)C)cc1 6.00 to 7.00

Note down pIC50 recorded for Cc1ncsc1-c1ccc([C@H](C)NC(=O)[C@@H]2C[C@@H](O)CN2C(=O)[C@@H](NC(=O)CCCC(=O)N2CC[C@H]3CC[C@@H](C(=O)N[C@@H](CCC(N)=O)C(=O)NC(c4ccccc4)c4ccccc4)N3C(=O)[C@@H](NC(=O)c3cc4cc(C(=O)P(=O)(O)O)ccc4[nH]3)C2)C(C)(C)C)cc1 7.00 to 8.00

Note down pIC50 recorded for CC(=O)N1CC[C@H]2CC[C@@H](C(=O)N[C@@H](CCC(N)=O)COc3cccc(CCCc4cn([C@H](C(=O)N5C[C@H](O)C[C@H]5C(=O)N[C@@H](CO)c5ccc(-c6scnc6C)cc5)C(C)(C)C)nn4)c3Cl)N2C(=O)[C@@H](NC(=O)c2cc3cc(C(=O)P(=O)(O)O)ccc3[nH]2)C1 > 8.00

Note down pIC50 recorded for CCS(=O)(=O)c1ccc(CNC(=O)[C@H](CCC(N)=O)NC(=O)[C@@H]2CC[C@@H]3CCN(C(=O)CCCCCCc4cn([C@H](C(=O)N5C[C@H](O)C[C@H]5C(=O)N[C@@H](C)c5ccc(-c6scnc6C)cc5)C(C)(C)C)nn4)C[C@H](NC(=O)c4cc5cc(C(=O)P(=O)(O)O)ccc5[nH]4)C(=O)N32)cc1 7.00 to 8.00
